Molecular target: 5-hydroxytryptamine receptor 2C (Homo sapiens, UniProt P28335)
Sequence (P28335 whole entry): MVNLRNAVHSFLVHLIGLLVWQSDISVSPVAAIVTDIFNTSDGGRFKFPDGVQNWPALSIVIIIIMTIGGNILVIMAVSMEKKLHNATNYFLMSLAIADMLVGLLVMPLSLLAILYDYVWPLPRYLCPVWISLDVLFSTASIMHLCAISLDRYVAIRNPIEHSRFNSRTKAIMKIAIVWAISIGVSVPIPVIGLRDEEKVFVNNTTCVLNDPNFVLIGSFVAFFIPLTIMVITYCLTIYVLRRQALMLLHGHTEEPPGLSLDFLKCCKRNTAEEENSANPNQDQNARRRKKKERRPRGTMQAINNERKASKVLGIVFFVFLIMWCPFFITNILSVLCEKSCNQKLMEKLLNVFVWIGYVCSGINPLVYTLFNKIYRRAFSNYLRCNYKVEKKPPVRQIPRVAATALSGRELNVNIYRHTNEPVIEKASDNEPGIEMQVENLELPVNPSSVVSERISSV
Experiment: DRUGMATRIX: Serotonin (5-Hydroxytryptamine) 5-HT2C radioligand binding (ligand: [3H] Mesulergine)
Assay type: cell membranes, CHO-K1, Membrane
Settings: cho-k1; Not Active = under 50% inhibition at 10 µM
Where a SMILES comes first, the peptide text is derived from it. Bridges are numbered along the chain shown (N, C = ends). [ ]: non-standard residue; d: D form. The star is where a group is joined. Ileψ(thiazoline)Cys = CC[C@H](C)[C@H](N)C1=N[C@H](C(=O)*)CS1; dOrn = NCCC[C@@H](N)C(=O)O
measurementKind: IC50

As a guide, the following entries are already answered.
compound	IC50
O=P1(NCCCl)OCCCN1CCCl (stereo not drawn) [IFOSFAMIDE]	Not Active
CCCSc1ccc2nc(NC(=O)OC)[nH]c2c1 [ALBENDAZOLE]	Not Active
CC1(C)[C@@H](O[C@H]2O[C@H](C(=O)O)[C@@H](O)[C@H](O)[C@H]2O[C@@H]2O[C@H](C(=O)O)[C@@H](O)[C@H](O)[C@H]2O)CC[C@]2(C)[C@H]3C(=O)C=C4[C@@H]5C[C@@](C)(C(=O)O)CC[C@]5(C)CC[C@@]4(C)[C@]3(C)CC[C@@H]12 [GLYCYRRHIZIN]	Not Active
CCC1(c2ccccc2)C(=O)NCNC1=O [PRIMIDONE]	Not Active
C[C@]12Cc3c[nH]nc3C[C@@H]1CC[C@@H]1[C@@H]2CC[C@@]2(C)[C@H]1CC[C@]2(C)O [STANOZOLOL]	Not Active

Lookup: Look at this compound and give its reported IC50. CC[C@H](C)[C@H](N)C1=N[C@H](C(=O)N[C@@H](CC(C)C)C(=O)N[C@H](CCC(=O)O)C(=O)N[C@H](C(=O)N[C@H]2CCCCNC(=O)[C@H](CC(N)=O)NC(=O)[C@@H](CC(=O)O)NC(=O)[C@H](Cc3cnc[nH]3)NC(=O)[C@@H](Cc3ccccc3)NC(=O)[C@H]([C@@H](C)CC)NC(=O)[C@@H](CCCN)NC2=O)[C@@H](C)CC)CS1 [BACITRACIN] ({Ileψ(thiazoline)Cys}-L[dE]IK[dOrn]I[dF]H[dD]N; lactam 4-C)
Found: Not Active

Lookup: Cool, now Oc1c(I)cc(I)c2cccnc12 [IODOQUINOL]
Found: Not Active

Lookup: Cool, now COc1ccc([C@@H]2Sc3ccccc3N(CCN(C)C)C(=O)[C@@H]2OC(C)=O)cc1 [DILTIAZEM]
Found: Not Active

Lookup: Cool, now Cn1cnc([N+](=O)[O-])c1Sc1ncnc2nc[nH]c12 [AZATHIOPRINE]
Found: Not Active

====

Target: Glycine receptor (Rattus norvegicus, UniProt P22771+P24524+P07727+P20781); also: in other assays of this panel Not Active means under 50% inhibition at 10 µM
Format: cell membranes, Wistar, Spinal cord, Membrane
Conditions: read-out: IC50
measurementKind: pIC50
Notebook: values listed as pIC50 are -log10 of the concentration (mol/L).

Lookup: Look at this sequence and give its reported pIC50. `IVERMECTIN`
Found: 6.43

====

Target: UniProt P08912
Sequence (P08912 whole entry): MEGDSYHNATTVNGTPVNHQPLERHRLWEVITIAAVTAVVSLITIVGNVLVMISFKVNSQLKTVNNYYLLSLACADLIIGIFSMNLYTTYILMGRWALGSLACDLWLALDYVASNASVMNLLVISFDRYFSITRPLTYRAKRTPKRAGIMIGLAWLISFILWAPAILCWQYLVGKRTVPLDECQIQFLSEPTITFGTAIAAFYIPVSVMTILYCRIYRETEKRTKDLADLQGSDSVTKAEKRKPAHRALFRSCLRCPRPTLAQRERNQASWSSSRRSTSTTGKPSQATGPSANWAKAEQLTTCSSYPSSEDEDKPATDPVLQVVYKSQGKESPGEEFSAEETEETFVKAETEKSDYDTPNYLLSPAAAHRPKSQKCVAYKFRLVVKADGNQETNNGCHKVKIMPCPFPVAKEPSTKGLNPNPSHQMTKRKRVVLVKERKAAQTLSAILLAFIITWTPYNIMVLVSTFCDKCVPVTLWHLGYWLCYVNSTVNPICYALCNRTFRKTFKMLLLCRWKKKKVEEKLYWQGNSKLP
Type: cell membranes, CHO-K1, Membrane
Conditions: cho-k1
measurementKind: IC50

As a guide, the following entries are already answered.
compound	measurement
O=c1cc(-c2ccccc2)oc2c1ccc1ccccc12 [ALPHA-NAPHTHOFLAVONE]	Not Active
CC[C@H]1OC(=O)[C@H](C)[C@@H](O[C@H]2C[C@@](C)(OC)[C@@H](O)[C@H](C)O2)[C@H](C)[C@@H](O[C@@H]2O[C@H](C)C[C@H](N(C)C)[C@H]2O)[C@](C)(O)C[C@@H](C)/C(=N\OCOCCOC)[C@H](C)[C@@H](O)[C@]1(C)O [ROXITHROMYCIN]	Not Active
CC(/C=C1\SC(=S)N(CC(=O)O)C1=O)=C\c1ccccc1	Not Active
CC(C)(Oc1ccc(CCNC(=O)c2ccc(Cl)cc2)cc1)C(=O)O [BEZAFIBRATE]	Not Active

Lookup: Look at this compound and give its reported IC50. NNc1ccccc1 [PHENYLHYDRAZINE]
Found: Not Active

Lookup: Cool, now COc1ccc(C(CN(C)C)C2(O)CCCCC2)cc1 (configuration not stated) [VENLAFAXINE]
Found: Not Active

====

Target: Cytochrome P450 3A4 (Homo sapiens, UniProt P08684); also: in other assays of this panel Not Active means under 50% inhibition at 10 µM
Sequence (P08684 whole entry): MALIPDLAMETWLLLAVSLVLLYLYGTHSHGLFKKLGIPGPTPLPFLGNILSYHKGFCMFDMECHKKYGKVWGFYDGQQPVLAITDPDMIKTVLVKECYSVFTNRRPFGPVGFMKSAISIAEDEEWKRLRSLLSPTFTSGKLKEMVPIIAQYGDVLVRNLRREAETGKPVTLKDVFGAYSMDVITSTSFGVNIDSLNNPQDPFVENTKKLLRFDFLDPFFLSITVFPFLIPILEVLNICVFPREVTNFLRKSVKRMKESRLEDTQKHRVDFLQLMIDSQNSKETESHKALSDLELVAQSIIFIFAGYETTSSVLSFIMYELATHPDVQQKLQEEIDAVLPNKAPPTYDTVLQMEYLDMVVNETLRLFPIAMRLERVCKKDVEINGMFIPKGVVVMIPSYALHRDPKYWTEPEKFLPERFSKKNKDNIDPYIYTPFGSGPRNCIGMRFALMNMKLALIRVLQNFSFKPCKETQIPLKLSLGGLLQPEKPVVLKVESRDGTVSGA
Conditions: bti-tn-5b1-4
measurementKind: Ki

>>> df
                                   compound                              systemtested  measurement
0  CC(/C=C1\SC(=S)N(CC(=O)O)C1=O)=C\c1ccccc1  Cytochrome P450 3A4 (Homo sapiens, UniProt P08684)   Not Active
1                       CCOC(=O)c1ccc(N)cc1  Cytochrome P450 3A4 (Homo sapiens, UniProt P08684)   Not Active
2  C/C=C1\[C@H]2C=C(C)C[C@]1(N)c1ccc(=O)[nH]c1C2  Cytochrome P450 3A4 (Homo sapiens, UniProt P08684)   Not Active
3  C=C1CC[C@H](O)C/C1=C/C=C1\CCC[C@]2(C)[C@@H]([C@H](C)/C=C/[C@H](C)C(C)C)CC[C@@H]12  Cytochrome P450 3A4 (Homo sapiens, UniProt P08684)   Not Active
4  CN1[C@@H]2CC[C@H]1C[C@@H](OC(=O)c1c[nH]c3ccccc13)C2  Cytochrome P450 3A4 (Homo sapiens, UniProt P08684)   Not Active

Lookup: Look at this compound and give its reported Ki. CC(C)n1c(/C=C/C(O)CC(O)CC(=O)O)c(-c2ccc(F)cc2)c2ccccc21 (centres undefined)
Found: Not Active

Lookup: Cool, now `Oc1c(Cl)cc(Cl)cc1Sc1cc(Cl)cc(Cl)c1O`
Found: Not Active

Lookup: Cool, now CN1CCN2c3ccccc3Cc3ccccc3C2C1 (centres undefined)
Found: Not Active

Lookup: Cool, now CC(CCc1ccccc1)NCC(O)c1ccc(O)c(C(N)=O)c1 (centres undefined)
Found: Not Active

====

Biological target: Polyunsaturated fatty acid lipoxygenase ALOX15 (Oryctolagus cuniculus, UniProt P12530); also: in other assays of this panel Not Active means under 50% inhibition at 10 µM;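 also: inhibition of 15-lipoxygenase enzyme activity measured with linoleic acid as the substrate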
Sequence (P12530 whole entry): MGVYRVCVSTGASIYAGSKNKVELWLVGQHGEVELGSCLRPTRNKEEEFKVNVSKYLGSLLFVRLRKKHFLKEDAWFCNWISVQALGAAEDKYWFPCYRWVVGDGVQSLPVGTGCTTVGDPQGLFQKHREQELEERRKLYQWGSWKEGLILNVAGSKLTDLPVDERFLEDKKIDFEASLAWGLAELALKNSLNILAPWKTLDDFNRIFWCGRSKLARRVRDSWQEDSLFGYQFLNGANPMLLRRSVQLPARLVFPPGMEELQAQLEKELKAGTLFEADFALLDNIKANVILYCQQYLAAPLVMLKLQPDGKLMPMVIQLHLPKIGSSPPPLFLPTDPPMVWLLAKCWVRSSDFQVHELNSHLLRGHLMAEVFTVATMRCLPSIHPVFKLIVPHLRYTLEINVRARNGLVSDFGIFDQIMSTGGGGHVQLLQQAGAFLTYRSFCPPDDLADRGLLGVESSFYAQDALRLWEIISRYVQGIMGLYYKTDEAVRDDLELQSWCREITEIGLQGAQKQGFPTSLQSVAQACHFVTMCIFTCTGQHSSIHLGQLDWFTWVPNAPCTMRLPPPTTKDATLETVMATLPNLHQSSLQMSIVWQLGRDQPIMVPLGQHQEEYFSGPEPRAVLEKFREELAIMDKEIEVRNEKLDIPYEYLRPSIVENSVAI
Assay: biochemical
Format: tissue-based, Reticulocytes
Conditions: reticulocytes
measurementKind: IC50

As a guide, the following entries are already answered.
In [3]: df
Out[3]:
                          chemicalstructure                              systemtested  measurement
0  CC1=C(/C=C/C(C)=C/C=C/C(C)=C\C(=O)O)C(C)(C)CCC1  Polyunsaturated fatty acid lipoxygenase ALOX15 (Oryctolagus cuniculus, UniProt P12530)   Not Active
1  O=C1OC2(c3ccc(O)cc3Oc3cc(O)ccc32)c2ccccc21  Polyunsaturated fatty acid lipoxygenase ALOX15 (Oryctolagus cuniculus, UniProt P12530)   Not Active
2  CN(C)[C@@H]1C(O)=C(C(N)=O)C(=O)[C@@]2(O)C(O)=C3C(=O)c4c(O)cccc4[C@@](C)(O)[C@H]3[C@H](O)[C@@H]12  Polyunsaturated fatty acid lipoxygenase ALOX15 (Oryctolagus cuniculus, UniProt P12530)   Not Active
3                           NNC(=O)c1ccncc1  Polyunsaturated fatty acid lipoxygenase ALOX15 (Oryctolagus cuniculus, UniProt P12530)   Not Active

Lookup: Look at this molecule and give its reported IC50. `Fc1ccc([C@@H]2CCNC[C@H]2COc2ccc3c(c2)OCO3)cc1`
Found: Not Active

Lookup: Cool, now `CNCCC=C1c2ccccc2CCc2ccccc21`
Found: Not Active

====

Biological target: Insulin receptor (Rattus norvegicus, UniProt P15127); also: in other assays of this panel Not Active means under 50% inhibition at 10 µM
Sequence (P15127 27-759 limits assumed): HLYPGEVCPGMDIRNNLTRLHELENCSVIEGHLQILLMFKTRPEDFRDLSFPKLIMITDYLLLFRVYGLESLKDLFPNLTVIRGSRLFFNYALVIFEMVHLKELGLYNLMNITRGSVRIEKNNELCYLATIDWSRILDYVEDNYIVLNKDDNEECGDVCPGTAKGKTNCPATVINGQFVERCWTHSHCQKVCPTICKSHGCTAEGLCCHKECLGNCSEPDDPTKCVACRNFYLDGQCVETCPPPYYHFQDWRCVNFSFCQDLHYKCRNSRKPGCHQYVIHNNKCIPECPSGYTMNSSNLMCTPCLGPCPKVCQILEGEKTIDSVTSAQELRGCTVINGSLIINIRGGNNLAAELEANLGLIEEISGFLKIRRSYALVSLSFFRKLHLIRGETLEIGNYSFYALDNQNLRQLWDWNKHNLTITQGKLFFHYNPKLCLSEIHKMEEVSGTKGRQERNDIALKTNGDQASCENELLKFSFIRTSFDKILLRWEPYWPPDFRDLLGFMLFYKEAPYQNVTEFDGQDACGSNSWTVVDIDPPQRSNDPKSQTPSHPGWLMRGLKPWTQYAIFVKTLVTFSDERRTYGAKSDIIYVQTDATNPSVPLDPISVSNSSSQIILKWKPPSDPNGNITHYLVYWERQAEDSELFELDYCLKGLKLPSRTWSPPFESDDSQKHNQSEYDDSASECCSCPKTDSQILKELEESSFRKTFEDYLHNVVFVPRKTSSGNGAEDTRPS
Sequence (P15127 764-1383 limits assumed): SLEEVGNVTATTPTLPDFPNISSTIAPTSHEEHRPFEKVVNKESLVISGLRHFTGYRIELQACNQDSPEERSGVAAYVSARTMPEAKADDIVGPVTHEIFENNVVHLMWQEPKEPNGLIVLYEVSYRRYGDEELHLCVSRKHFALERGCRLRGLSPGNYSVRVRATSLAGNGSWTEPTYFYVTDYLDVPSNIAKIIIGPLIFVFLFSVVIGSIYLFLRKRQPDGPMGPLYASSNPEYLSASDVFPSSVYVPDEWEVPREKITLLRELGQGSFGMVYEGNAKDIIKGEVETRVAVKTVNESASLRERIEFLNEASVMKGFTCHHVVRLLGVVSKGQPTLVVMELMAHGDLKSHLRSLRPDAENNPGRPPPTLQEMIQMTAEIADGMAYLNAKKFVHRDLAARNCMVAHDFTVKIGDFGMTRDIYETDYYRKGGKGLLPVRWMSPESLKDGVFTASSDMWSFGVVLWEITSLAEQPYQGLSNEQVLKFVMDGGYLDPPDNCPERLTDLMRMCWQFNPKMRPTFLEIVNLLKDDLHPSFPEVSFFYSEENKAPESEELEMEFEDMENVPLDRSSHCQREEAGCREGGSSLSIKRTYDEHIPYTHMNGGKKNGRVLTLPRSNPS
Type: cell membranes, Wistar, Liver, Membrane
measurementKind: IC50

As a guide, the following entries are already answered.
In [3]: df
Out[3]:
                                   compound  measurement
0  CNCCC=C1c2ccccc2CCc2ccccc21 [NORTRIPTYLINE]   Not Active
1          CCCCOC(=O)c1ccc(N)cc1 [BUTAMBEN]   Not Active
2  Cc1cc(NS(=O)(=O)c2ccc(N)cc2)no1 [SULFAMETHOXAZOLE]   Not Active
3  O=c1cc(-c2ccccc2)oc2c1ccc1ccccc12 [ALPHA-NAPHTHOFLAVONE]   Not Active

Lookup: Checklist item: IC50 tested on Insulin receptor (Rattus norvegicus, UniProt P15127), entry NC(CO)(CO)CO [TROMETHAMINE] , value?; also: in other assays of this panel Not Active means under 50% inhibition at 10 µM
Found: Not Active

Lookup: Cool, now NCC(=O)O [GLYCINE]
Found: Not Active

Lookup: Cool, now Nc1nnc(-c2cccc(Cl)c2Cl)c(N)n1 [LAMOTRIGINE]
Found: Not Active

Lookup: Cool, now `CC(C)(C)NC(=O)[C@@H]1CN(Cc2cccnc2)CCN1C[C@@H](O)C[C@@H](Cc1ccccc1)C(=O)N[C@H]1c2ccccc2C[C@H]1O.O`
Found: Not Active

Lookup: Cool, now COC(=O)c1ccc(O)cc1 [METHYLPARABEN]
Found: Not Active

Lookup: Cool, now COC(=O)[C@@H]1[C@H]2C[C@H]3c4[nH]c5ccccc5c4CCN3C[C@@H]2CC[C@@H]1O [YOHIMBINE]
Found: Not Active
